Assay: Stability of linkers L1-L4 conjugated to FGF21 (LC-MS)
Assay type: physicochemical
Settings: +4° C., 336 hrs
Method: The following experiment was performed to investigate the chemical stability over 2 weeks of the four linkers upon conjugation to FGF21: each linker was conjugated to FGF21, placed at +4° C. storage conditions, and aliquots were removed and quenched by freezing at specific time points, and linker stability was monitored by LCMS analysis. The four linkers were dissolved in DMSO from lyophilized stock material. […] L1 was reacted with protein for 30 mins; L2, L3 and L4 were reacted for 2 hrs. […]
MEASUREMENT_LABEL: 1 linker (protein+linker) (%)
Report the figure in % without appending any unit label.

Solved cases below.
| MOLECULE | RESULT_UNITS | 1 linker (protein+linker) |
| --- | --- | --- |
| L2-FGF21ΔH-A129C: Linker-2 conjugated to FGF21ΔH-A129C protein (Table 4; Table 5 row L2) (conjugate, UniProt Q9NSA1 29-209, looked up, variant H1* A129C, Linker-2 attached) Fibroblast growth factor 21: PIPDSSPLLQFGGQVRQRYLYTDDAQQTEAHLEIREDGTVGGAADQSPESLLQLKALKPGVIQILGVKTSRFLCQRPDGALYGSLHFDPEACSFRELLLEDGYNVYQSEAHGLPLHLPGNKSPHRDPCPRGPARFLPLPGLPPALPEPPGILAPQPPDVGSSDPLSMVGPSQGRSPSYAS | % | 38 |
| L1-FGF21ΔH-A129C: Linker-1 conjugated to FGF21ΔH-A129C protein (Table 4; Table 5 row L1) (conjugate, UniProt Q9NSA1 29-209, looked up, variant H1* A129C, Linker-1 attached) Fibroblast growth factor 21: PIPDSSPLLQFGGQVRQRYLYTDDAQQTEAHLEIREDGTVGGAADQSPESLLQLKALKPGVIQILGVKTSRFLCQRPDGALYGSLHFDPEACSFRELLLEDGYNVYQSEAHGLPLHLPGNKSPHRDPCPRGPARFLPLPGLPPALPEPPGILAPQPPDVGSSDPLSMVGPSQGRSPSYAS | % | 28 |

Next:
Quick one: 1 linker (protein+linker) for L4-FGF21ΔH-A129C: Linker-4 conjugated to FGF21ΔH-A129C protein (Table 4; Table 5 row L4) (conjugate, UniProt Q9NSA1 29-209, looked up, variant H1* A129C, Linker-4 attached) Fibroblast growth factor 21: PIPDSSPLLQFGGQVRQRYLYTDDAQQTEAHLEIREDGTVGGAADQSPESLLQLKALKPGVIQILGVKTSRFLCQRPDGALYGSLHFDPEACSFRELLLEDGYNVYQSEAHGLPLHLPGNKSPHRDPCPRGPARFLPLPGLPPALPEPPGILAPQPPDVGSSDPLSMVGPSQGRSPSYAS ?
41

Data origin: patent US8722622B2
